Molecular target: tau aggregates (Tau-412) (Homo sapiens)
Sequence (P10636 1-412 isoform P10636-7): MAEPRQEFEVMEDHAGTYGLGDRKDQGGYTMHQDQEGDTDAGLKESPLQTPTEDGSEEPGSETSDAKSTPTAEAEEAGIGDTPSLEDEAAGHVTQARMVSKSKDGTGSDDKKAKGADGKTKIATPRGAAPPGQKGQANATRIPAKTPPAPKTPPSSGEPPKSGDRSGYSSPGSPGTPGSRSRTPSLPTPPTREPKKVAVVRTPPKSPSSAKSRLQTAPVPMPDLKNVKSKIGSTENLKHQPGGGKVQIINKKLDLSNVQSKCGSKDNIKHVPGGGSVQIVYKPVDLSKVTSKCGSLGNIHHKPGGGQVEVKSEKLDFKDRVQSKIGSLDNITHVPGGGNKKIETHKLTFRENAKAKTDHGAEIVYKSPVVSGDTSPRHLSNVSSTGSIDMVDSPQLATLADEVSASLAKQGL
Test: In vitro binding assay with aggregated tau (fluorescence)
Settings: aggregated tau 10 μg/sample, 1 h at RT, triplicate
Answer each item with its documented Kd.
Record the value in pM, omitting the unit from your answer.

In: So what's the measured Kd for this one? "COc1ccc2c(c1)N(CCF)/C(=C/C(C)=C/c1sc3ccc(OC)cc3[n+]1CCF)S2"
Out: 880

In: So what's the measured Kd for this one? "COc1ccc2c(c1)N(CCO)/C(=C/C(C)=C/c1sc3ccc(OC)cc3[n+]1CCF)S2"
Out: 750

###

Target: Aβ1-40 aggregates (Homo sapiens, UniProt P05067)
Construct: Aβ1-40 protein (4.3 kDa, 1 mg/ml, Invitrogen)
Sequence (P05067 672-711 limits assumed): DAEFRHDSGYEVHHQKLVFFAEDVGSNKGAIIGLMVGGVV
Assay: In vitro binding assay with aggregated Aβ1-40 (fluorescence)
Settings: aggregated Aβ1-40 10 μg/sample, 1 h at RT, triplicate
Answer each item with its documented Kd.
Field note: include the unit after the figure.

In: So what's the measured Kd for this one? "COc1ccc2c(c1)N(CCF)/C(=C/C(C)=C/c1sc3ccc(OC)cc3[n+]1CCF)S2"
Out: 29.8 µM

In: So what's the measured Kd for this one? "COc1ccc2c(c1)N(CCO)/C(=C/C(C)=C/c1sc3ccc(OC)cc3[n+]1CCF)S2"
Out: 15.6 µM
